Cited source: ChEMBL document CHEMBL4406834

solubility kinetic values by entry
ASSAY INFO: Aqueous solubility of the compound in phosphate buffered saline assessed as concentration that produces no precipitate measured as OD at 540 nm
Type: physicochemical
Provide only the numeric value, understood in µM.

MOLECULE | READING
C/C(=N\NC(=N)N)c1sc(-c2ccc(C3CCCCC3)cc2)nc1C | 2.7
C/C(=N\NC(=N)N)c1sc(-c2ccc(N3CCCC(C)C3)cc2)nc1C (stereo not drawn) | 435

Item `C/C(=N\NC(=N)N)c1sc(-c2ccc(N3CCCCC3)cc2)nc1C` has what recorded solubility kinetic?
480

* * *

Tested on: Staphylococcus aureus
ASSAY INFO: Bactericidal activity against methicilline-sensitive Staphylococcus aureus NRS-107 incubated for 18 to 20 hrs followed by replating on tryptic soy agar plate and further incubated for 18 to 24 hrs by CLSI-based broth microdilution assay
Type: functional
ATTRIBUTE MEASURED: MBC (µg/mL)
Provide only the numeric value, understood in µg/mL.

Answered examples (3):
COMPOUND | MBC, µg/mL
CC(=O)NC[C@H]1CN(c2ccc(N3CCOCC3)c(F)c2)C(=O)O1 | 64
C/C(=N\NC(=N)N)c1sc(-c2ccc(N3CCCC(C)C3)cc2)nc1C (centres undefined) | 16
C/C(=N\NC(=N)N)c1sc(-c2ccc(N3CCCCC3)cc2)nc1C | 8

Here is another compound to look at.
Lab request: please report MBC under test system Staphylococcus aureus for `CN[C@H](CC(C)C)C(=O)N[C@H]1C(=O)N[C@@H](CC(N)=O)C(=O)N[C@H]2C(=O)N[C@H]3C(=O)N[C@H](C(=O)N[C@H](C(=O)O)c4cc(O)cc(O)c4-c4cc3ccc4O)[C@H](O)c3ccc(c(Cl)c3)Oc3cc2cc(c3O[C@@H]2O[C@H](CO)[C@@H](O)[C@H](O)[C@H]2O[C@H]2C[C@](C)(N)[C@H](O)[C@H](C)O2)Oc2ccc(cc2Cl)[C@H]1O`
1

* * *

Tested on: Staphylococcus aureus
ASSAY INFO: Bactericidal activity against methicilline-resistant Staphylococcus aureus NRS385 USA500 incubated for 18 to 20 hrs followed by replating on tryptic soy agar plate and further incubated for 18 to 24 hrs by CLSI-based broth microdilution assay
Format: functional
ATTRIBUTE MEASURED: MBC
Answers without a unit are incomplete; give the number and then its unit.

Answered examples (3):
MOLECULE | EXPERIMENTAL TARGET | MBC
CC(=O)NC[C@H]1CN(c2ccc(N3CCOCC3)c(F)c2)C(=O)O1 | Staphylococcus aureus | 32 µg/mL
CN[C@H](CC(C)C)C(=O)N[C@H]1C(=O)N[C@@H](CC(N)=O)C(=O)N[C@H]2C(=O)N[C@H]3C(=O)N[C@H](C(=O)N[C@H](C(=O)O)c4cc(O)cc(O)c4-c4cc3ccc4O)[C@H](O)c3ccc(c(Cl)c3)Oc3cc2cc(c3O[C@@H]2O[C@H](CO)[C@@H](O)[C@H](O)[C@H]2O[C@H]2C[C@](C)(N)[C@H](O)[C@H](C)O2)Oc2ccc(cc2Cl)[C@H]1O | Staphylococcus aureus | 1 µg/mL
C/C(=N\NC(=N)N)c1sc(-c2ccc(N3CCCCC3)cc2)nc1C | Staphylococcus aureus | 32 µg/mL

Here is another molecule to look at.
Item C/C(=N\NC(=N)N)c1sc(-c2ccc(N3CCCC(C)C3)cc2)nc1C (centres undefined) has what recorded MBC?
16 µg/mL
